# test.system: T1, PUF4 RNA-binding domain (Saccharomyces cerevisiae, UniProt P25339 537-888)
# T1 sequence: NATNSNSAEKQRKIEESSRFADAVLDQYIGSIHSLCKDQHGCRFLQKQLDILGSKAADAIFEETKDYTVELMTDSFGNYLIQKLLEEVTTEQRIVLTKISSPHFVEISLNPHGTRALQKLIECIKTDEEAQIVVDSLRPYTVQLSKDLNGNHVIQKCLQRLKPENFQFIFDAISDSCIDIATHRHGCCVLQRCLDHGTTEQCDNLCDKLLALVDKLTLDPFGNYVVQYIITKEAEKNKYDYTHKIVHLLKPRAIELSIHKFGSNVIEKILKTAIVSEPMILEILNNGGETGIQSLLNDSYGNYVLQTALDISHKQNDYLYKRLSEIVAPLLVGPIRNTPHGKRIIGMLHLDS
# assay.notes: Mg; RNA-MaP; 20 mM Na-HEPES pH 7.4, 30 mM KOAc, 0.75 mM MgCl2, 0.1% Tween-20, 5% glycerol, 0.1 mg/mL BSA, 2 mM DTT; 25 C; 0.0125-409.6 nM protein
# test.parameters: tags: N-His6-TEV cleaved; C-SNAP kept, Cy3B-labelled; label: tethered on chip by stalled RNA polymerase
pKd: −log10 of the molar value.
Please use the following pKd ranges when assigning a class: interval 1: < 6; interval 2: ≥ 6 and < 8; interval 3: ≥ 8

{"columns": ["binder", "label"],
 "data": [
  ["UCUCUUUUUAUAUAAUCUCUU (ssRNA) [Ib_S1_P4E.1_K4.1_C4.1_H4.1_[G2T]_A4.1_F4.1_[T8A]_T4.1]", "interval 1"],
  ["Ic_S2_P3E.1_K3.1_C3.1_H3.1_A3.1_[T5A]_[A6T]_F3.1_[A8T]_T3.1 (ssRNA) RNA: UUUGAUUAAUAUGAUAUCGUUCUUUCUUGUAAUUUUUCUUUCUCGAUAUCAUAUUAAUCUUU", "interval 2"],
  ["Id_ii_S2_P3E.3_K3.2_C3.2_[C-2T]_[T-1A]_H3.2_A3.1_F3.1_T3.2_[T9A]_[A10C] (ssRNA) RNA: UUUGAUUAAUAUGAUAUCGUUCUUUCUUAUAUAUAUAACUUCUUUCUCGAUAUCAUAUUAAUCUUU", "interval 2"],
  ["UCUCUUUUUAUAUUAUUAUCUCUCUU (ssRNA) [Id_ii_S1_P5E.3_K5.2_C5.2_[C-2T]_H5.2_A5.1_F5.1_T5.2_[A12C]]", "interval 2"]
]}

Now for another entry.
Band assignment needed for Id_ii_S4_P4E.2_K4.1_C4.2_[C-2A]_[T-1C]_H4.1_A4.1_F4.1_T4.2_[G10T]_[T11C] (ssRNA) RNA: UUUGACAACUGAUCGUUCUUUCUACUGUAUAUUAUCUUCUUUCUCGAUCAGUUGUCUUU please. interval 3
